target: DNA-PK(h) (Homo sapiens, UniProt P78527); test: Evaluation of inhibitory activity against DNA-PK (HTRF kinase assay, GST-cMyc-p53 substrate); format: biochemical; details: compound concentration 0.01 μM; read-out: EXP_VALUE(% Inhibition) DNA-PK(h) 0.01 μM
In this section we review reported inhibition at 0.01 µM values for a set of compounds.

{"CHEMICAL_SMILES": "C[C@H](Nc1ncnc2[nH]ccc(=O)c12)c1c(Cl)c2cccc(-c3ccc(C(=O)N(C)C)cc3)c2c(=O)n1-c1ccccc1", "inhibition at 0.01 µM, %": 74}
{"CHEMICAL_SMILES": "COc1ncc(-c2cccc3c(Cl)c([C@H](C)Nc4ncnc5[nH]ccc(=O)c45)n(-c4ccccc4)c(=O)c23)cc1C#N", "inhibition at 0.01 µM, %": 45}
{"CHEMICAL_SMILES": "C[C@H](Nc1ncnc2[nH]ccc(=O)c12)c1c(Cl)c2cccc(-c3ccc(C4CCN(C)CC4)cc3)c2c(=O)n1-c1ccccc1", "inhibition at 0.01 µM, %": 98}
{"CHEMICAL_SMILES": "C[C@H](Nc1ncnc2[nH]ccc(=O)c12)c1c(Cl)c2cccc(C3=NC(C)(C)CO3)c2c(=O)n1-c1ccccc1", "inhibition at 0.01 µM, %": 27}
{"CHEMICAL_SMILES": "COc1cc(-c2cccc3cc([C@H](C)Nc4ncnc5[nH]ccc(=O)c45)n(-c4ccccc4)c(=O)c23)ccc1Cl", "inhibition at 0.01 µM, %": 17}
{"CHEMICAL_SMILES": "C[C@H](Nc1ncnc2[nH]ccc(=O)c12)c1c(Cl)c2cccc(-c3ccc(N4CCN(C(=O)OC(C)(C)C)CC4)cc3)c2c(=O)n1-c1ccccc1", "inhibition at 0.01 µM, %": 32}
{"CHEMICAL_SMILES": "C[C@H](Nc1ncnc2[nH]ccc(=O)c12)c1c(Cl)c2cccc(N3CCC[C@H]3CN3CCCC3)c2c(=O)n1-c1ccccc1", "inhibition at 0.01 µM, %": -2}
{"CHEMICAL_SMILES": "CC(C)Oc1ccc(-c2cccc3c(Cl)c([C@H](C)Nc4ncnc5[nH]ccc(=O)c45)n(-c4ccccc4)c(=O)c23)cn1", "inhibition at 0.01 µM, %": 68}
{"CHEMICAL_SMILES": "COc1ccc(Nc2cccc3c(Cl)c([C@H](C)Nc4ncnc5[nH]ccc(=O)c45)n(-c4ccccc4)c(=O)c23)cc1", "inhibition at 0.01 µM, %": 0}
{"CHEMICAL_SMILES": "COc1ccc(-c2cccc3c(Cl)c([C@H](C)Nc4ncnc5[nH]ccc(=O)c45)n(-c4ccccc4)c(=O)c23)cc1OC", "inhibition at 0.01 µM, %": 87}
{"CHEMICAL_SMILES": "C[C@H](Nc1ncnc2[nH]ccc(=O)c12)c1cc2cccc(-c3cccnc3)c2c(=O)n1-c1ccccc1", "inhibition at 0.01 µM, %": 6}
{"CHEMICAL_SMILES": "C[C@H](Nc1ncnc2[nH]ccc(=O)c12)c1c(Cl)c2cccc(N3CCC[C@H]3C(N)=O)c2c(=O)n1-c1ccccc1", "inhibition at 0.01 µM, %": 13}
{"CHEMICAL_SMILES": "C[C@H](Nc1ncnc2[nH]ccc(=O)c12)c1c(Cl)c2cccc(-c3ccc(-n4cccc4)nc3)c2c(=O)n1-c1ccccc1", "inhibition at 0.01 µM, %": 44}

----------
target: DNA-PK(h) (Homo sapiens); assay: Evaluation of inhibitory activity against DNA-PK (HTRF kinase assay, GST-cMyc-p53 substrate); format: biochemical; details: compound concentration 0.01 μM; read-out: EXP_VALUE(% Inhibition) DNA-PK(h) 0.01 μM
In this section we review reported inhibition at 0.01 µM values for a set of molecules.
QUANTITY_KIND: inhibition at 0.01 µM (%)

{"MOLECULE": "C[C@H](Nc1ncnc2[nH]ccc(=O)c12)c1c(Cl)c2cccc(-c3cccnc3)c2c(=O)n1-c1ccccc1 [Example 4]", "QUANTITY_KIND": "inhibition at 0.01 µM", "OBS_VALUE": 53}
{"MOLECULE": "C[C@H](Nc1ncnc2[nH]ccc(=O)c12)c1c(Cl)c2cccc(-c3ccc4[nH]c(=O)[nH]c4c3)c2c(=O)n1-c1ccccc1 [Example 21]", "QUANTITY_KIND": "inhibition at 0.01 µM", "OBS_VALUE": 69}
{"MOLECULE": "C[C@H](Nc1ncnc2[nH]ccc(=O)c12)c1c(Cl)c2cccc(-c3cccc4cn[nH]c34)c2c(=O)n1-c1ccccc1 [Example 239]", "QUANTITY_KIND": "inhibition at 0.01 µM", "OBS_VALUE": 10}

----------
In this section we review reported inhibition at 0.01 µM values for a set of molecules.
target: DNA-PK(h) (Homo sapiens, UniProt P78527); assay: Evaluation of inhibitory activity against DNA-PK (HTRF kinase assay, GST-cMyc-p53 substrate); assay type: biochemical; conditions: compound concentration 0.01 μM; read-out: EXP_VALUE(% Inhibition) DNA-PK(h) 0.01 μM

{"CHEMICAL_SMILES": "C[C@H](Nc1ncnc2[nH]ccc(=O)c12)c1c(Cl)c2cccc(-c3cn[nH]c3)c2c(=O)n1-c1ccccc1", "inhibition at 0.01 µM [%]": 73}
{"CHEMICAL_SMILES": "C[C@H](Nc1ncnc2[nH]ccc(=O)c12)c1c(Cl)c2cccc(N)c2c(=O)n1-c1ccccc1", "inhibition at 0.01 µM [%]": 49}
{"CHEMICAL_SMILES": "COc1cc(-c2cccc3c(Cl)c([C@H](C)Nc4ncnc5[nH]ccc(=O)c45)n(-c4ccccc4)c(=O)c23)cc(OC)c1OC", "inhibition at 0.01 µM [%]": 91}
{"CHEMICAL_SMILES": "C[C@H](Nc1ncnc2[nH]ccc(=O)c12)c1c(Cl)c2cccc(-c3cnc(C#N)nc3)c2c(=O)n1-c1ccccc1", "inhibition at 0.01 µM [%]": 43}
{"CHEMICAL_SMILES": "C[C@H](Nc1ncnc2[nH]ccc(=O)c12)c1c(Cl)c2cccc(-c3ccc4nonc4c3)c2c(=O)n1-c1ccccc1", "inhibition at 0.01 µM [%]": 22}
{"CHEMICAL_SMILES": "C[C@H](Nc1ncnc2[nH]ccc(=O)c12)c1c(Cl)c2cccc(C#Cc3ccncc3)c2c(=O)n1-c1ccccc1", "inhibition at 0.01 µM [%]": 75}
{"CHEMICAL_SMILES": "C[C@H](Nc1ncnc2[nH]ccc(=O)c12)c1c(Cl)c2cccc(N(C)C)c2c(=O)n1-c1ccccc1", "inhibition at 0.01 µM [%]": 11}
{"CHEMICAL_SMILES": "C[C@H](Nc1ncnc2[nH]ccc(=O)c12)c1c(Cl)c2cccc(-c3ccncc3)c2c(=O)n1-c1ccccc1", "inhibition at 0.01 µM [%]": 83}
{"CHEMICAL_SMILES": "Cc1c[nH]c2ccc(-c3cccc4c(Cl)c([C@H](C)Nc5ncnc6[nH]ccc(=O)c56)n(-c5ccccc5)c(=O)c34)cc12", "inhibition at 0.01 µM [%]": 54}
{"CHEMICAL_SMILES": "Cc1c(-c2cccc3c(Cl)c([C@H](C)Nc4ncnc5[nH]ccc(=O)c45)n(-c4ccccc4)c(=O)c23)cnn1C", "inhibition at 0.01 µM [%]": 74}
{"CHEMICAL_SMILES": "COc1ncc(-c2cccc3c(Cl)c([C@H](C)Nc4ncnc5[nH]ccc(=O)c45)n(-c4ccccc4)c(=O)c23)cc1NS(=O)(=O)c1ccc(F)cc1F", "inhibition at 0.01 µM [%]": 15}
{"CHEMICAL_SMILES": "C[C@H](Nc1ncnc2[nH]ccc(=O)c12)c1c(Cl)c2cccc(-c3ccc4nsnc4c3)c2c(=O)n1-c1ccccc1", "inhibition at 0.01 µM [%]": 60}
{"CHEMICAL_SMILES": "COc1cc(OC(F)(F)F)cc(-c2cccc3c(Cl)c([C@H](C)Nc4ncnc5[nH]ccc(=O)c45)n(-c4ccccc4)c(=O)c23)c1", "inhibition at 0.01 µM [%]": 18}

----------
target: DNA-PK(h) (Homo sapiens, UniProt P78527); assay: Evaluation of inhibitory activity against DNA-PK (HTRF kinase assay, GST-cMyc-p53 substrate); type: biochemical; conditions: compound concentration 0.01 μM; read-out: EXP_VALUE(% Inhibition) DNA-PK(h) 0.01 μM
In this section we review reported inhibition at 0.01 µM values for a set of molecules.
QUANTITY_KIND: inhibition at 0.01 µM (%)

{"CHEMICAL_SMILES": "C[C@H](Nc1ncnc2[nH]ccc(=O)c12)c1c(Cl)c2cccc(-c3ccc(N(C)C)cc3)c2c(=O)n1-c1ccccc1", "OBS_VALUE": 58}
{"CHEMICAL_SMILES": "C[C@H](Nc1ncnc2[nH]ccc(=O)c12)c1c(Cl)c2cccc(N3Cc4ccccc4C3)c2c(=O)n1-c1ccccc1", "OBS_VALUE": 21}
{"CHEMICAL_SMILES": "C[C@H](Nc1ncnc2[nH]ccc(=O)c12)c1c(Cl)c2cccc(NCCc3ccc(Cl)cc3)c2c(=O)n1-c1ccccc1", "OBS_VALUE": 13}
{"CHEMICAL_SMILES": "Cc1c[nH]c2ccc(-c3cccc4cc([C@H](C)Nc5ncnc6[nH]ccc(=O)c56)n(-c5ccccc5)c(=O)c34)cc12", "OBS_VALUE": 6}
